Provenance of the data: patent US20180339017A1

# Target: human GLP-1 receptor (human, UniProt P43220 24-463)
# Assay summary: cell-based or functional assay
No end group written: not given here.
Quantity measured: EC50 hGLP1R (cAMP activity assay) (nM)

Some solved entries appear below for comparison.
| Binder | Quantitative readout |
| --- | --- |
| HSHGTFTSDYSKYLDSRRAQDFVQWLMTT-NH2 [PD51] | 0.02 |
| HSQGTFTSDYSKYLDSLMAQDFVQWLMST-NH2 [PD22] | 0.03 |
| HSQGTFTSDYSKYLDELRAYDFVQWLMNT-NH2 [PD27] | 0.03 |
| HSQGTFTSDYSKYLDSRRAQDFVDWLLNA-NH2 [PD48] | 0.02 |

(A) HSQGTFFSDYSKYLDSRRAQDFVQWLLET-NH2 [PD58]
(B) HSQGTFTSDYSKYLDSRRAQDFVQWLINY-NH2 [PD31]
Task: Would you kindly point out which of A and B has the smaller EC50 hGLP1R (cAMP activity assay) figure? Kindly state the label of the option you pick.
Output: A
(A: 0.02 nM, B: 0.04 nM)
